- System: Splenocyte
- procedure details: Induction of Th1-specific IFN-gamma secretion in C57BL/6 mouse splenocytes assessed as increase in IFN-gamma level in supernatant at 100 nM treated as liposomal formulation preincubated for 30 mins with anti-CD1d monoclonal antibody followed by compound addition and measured after 72 hrs by ELISA
- Type: functional, cell-based
Activity calls are given as the source filed them. The calls are words filed in the database; no cut-off is given here.
readout kind: Activity

[[record]]
query_smiles = "CCCCCCCCCCCCCC[C@@H](O)[C@@H](O)[C@H](CO[C@H]1O[C@H](CO)[C@H](O)[C@H](O)[C@H]1O)NC(=O)CCCCCCCCCCNS(=O)(=O)CCCCCCCCCCCCC"
result = "inactive"

[[record]]
query_smiles = "CCCCCCCCCCCCCCCCCCCCCCCCCC(=O)N[C@@H](CO[C@H]1O[C@H](CO)[C@H](O)[C@H](O)[C@H]1O)[C@H](O)[C@H](O)CCCCCCCCCCCCCC"
result = "inactive"

[[record]]
query_smiles = "CCCCCCCCCCCCCC[C@@H](O)[C@@H](O)[C@H](CO[C@H]1O[C@H](CO)[C@H](O)[C@H](O)[C@H]1O)NC(=O)CCCCCCCCCCCCCNS(=O)(=O)CCCCCCCCCC"
result = "inactive"

